# Tested on: normal mice
# run.description: Hypoglycemic effect of synthetic polypeptides on normal mice after subcutaneous injection (Example 9)
# Type: in vivo, Kunming white mice
# measurement.setup: 1 mg/mL at 0.05 ml/10 g, single subcutaneous injection on the back
Bridge positions count the residues as written; N and C are the ends. Ends that are not written are not given here.
outcome.measure: Blood glucose level at 15 min after administration

// solved cases for Blood glucose level at 15 min after administration follow
residues	subject.of.test	measured.value
ASCNGVCSPFDMPPCGTSACRCIPAGLFIGKCRNPYG (disulfide 15-32, 3-20, 7-22) [SEQ ID No. 17]	normal mice	6.6 ± 0.5 mmol/L
VSCNGVCSPFEMPPCGSSACRCIPYGLVVGNCRNPSG (disulfide 15-32, 3-20, 7-22) [SEQ ID No. 68]	normal mice	5.5 ± 0.4 mmol/L

IN: # return recorded Blood glucose level at 15 min after administration for input VSCNGVCSPFDIPPCGTPACRCIPYGLFVGNCRNPYG (disulfide 15-32, 3-20, 7-22) [SEQ ID No. 52]
OUT: 6.4 ± 0.4 mmol/L

IN: Give the measured Blood glucose level at 15 min after administration for ASCNGVCSPFDIPPCGTPLCRCIPVGLVIGNCRNPYG (disulfide 15-32, 3-20, 7-22) [SEQ ID No. 13]
OUT: 6.1 ± 0.3 mmol/L

IN: Note Blood glucose level at 15 min after administration for the sequence shown: ASCNGVCSPFEIPPCGSPLCRCIPVGLVIGNCRNPYG (disulfide 15-32, 3-20, 7-22) [SEQ ID No. 21]
OUT: 6.7 ± 0.4 mmol/L

* * *

# System: normal mice
# run.description: Hypoglycemic effect of polypeptides on normal mice after tail vein injection (Example 4)
# Format: in vivo, Kunming white mice
# measurement.setup: 1 mg/mL at 0.05 ml/10 g, single tail vein injection
Bridge positions count the residues as written; N and C are the ends. Square brackets hold non-standard residues; d marks the D form. Ends that are not written are not given here. Met(O) = CS(=O)CC[C@H](N)C(=O)O
outcome.measure: Blood glucose level at 30 min after administration (mmol/L)
Quick reminder: number only, in mmol/L, skip the unit.

substance	measured.value
ASCNGVCSPFEMoxPPCGTSACRCIPVGLVVGYCRNPSG (ASCNGVCSPFE[Met(O)]PPCGTSACRCIPVGLVVGYCRNPSG; disulfide 15-32, 3-20, 7-22; listed as Pisum sativum) [SEQ ID No. 2]	4.6

IN: Indicate its recorded Blood glucose level at 30 min after administration; the substance in question is ASCNGVCSPFEMoxPPCGSSACRCIPVGLLIGYCRNPSG (ASCNGVCSPFE[Met(O)]PPCGSSACRCIPVGLLIGYCRNPSG; disulfide 15-32, 3-20, 7-22; listed as Pisum sativum) [SEQ ID No. 6]
OUT: 4.2

IN: Output Blood glucose level at 30 min after administration of ASCNGVCSPFEMPPCGSSACRCIPVGLLIGYCRNPSG (disulfide 15-32, 3-20, 7-22; listed as Pisum sativum) [SEQ ID No. 5]
OUT: 5.3

IN: For the substance ASCNGVCSPFEMoxPPCGTSACRCIPVGLVIGYCRNPSG (ASCNGVCSPFE[Met(O)]PPCGTSACRCIPVGLVIGYCRNPSG; disulfide 15-32, 3-20, 7-22; listed as Pisum sativum) [SEQ ID No. 4] , give its reported Blood glucose level at 30 min after administration.
OUT: 4.6
